Molecular target: T1, biotinylated monovalent EpCAM-Fc (human EpCAM ECD-Fc knob avi-his paired with Fc hole) (human, UniProt P01857 104-328 = IgG part, biotin on the avi tag (BirA co-expression))
T1 construct: also called monovalent EpCAM-Fc construct; huEPCAM-Fc-knob (avi-His) + Fc hole (wt)
Assay: SPR ProteOn XPR36 off-rate, biotinylated monovalent EpCAM-Fc on NLC chip, 50 nM supernatant
Readings of koff for the listed binders
All answers are understood in s⁻¹, so give the number only.

Check out these entries, answers already filled in.
# Binder, Units symbol, koff
measured = [
    ("Monovalent EpCAM (GG04_VH x GG05_VL) (antibody, IgG1, V domains shown, one-armed hu IgG1 PG-LALA, VH/VL-crossed Fab on Fc hole plus empty Fc knob; from supernatant) VH: EVQLVQSGAEVKKPGESLKISCKGSGYSFTNYGMNWVRQMPGKGLEWMGWINTYTGESTYSPSFQGQVTISADKSISTAYLQWSSLKASDTAMYFCARFAIKGDYWGQGTLVTVSS VL: DIVMTQSPLSLPVTPGEPASISCRSSQGINNYLYWYLQKPGQSPQLLIYQMSNRASGVPDRFSGSGSGTDFTLKISRVEAEDVGVYYCAQNLEIPRTFGQGTKLEIK", "s⁻¹", 0.0123),
    ("Monovalent EpCAM (GG05_VH x GG06_VL) (antibody, IgG1, V domains shown, one-armed hu IgG1 PG-LALA, VH/VL-crossed Fab on Fc hole plus empty Fc knob; from supernatant) VH: EVQLVQSGAEVKKPGESLKISCKGSGYSFTQYGMNWVRQMPGKGLEWMGWINTYTGESTYSPSFQGQVTISADKSISTAYLQWSSLKASDTAMYFCARFAIKGDYWGQGTLVTVSS VL: DIQMTQSPSSLSASVGDRVTITCRASQSILHSQGITYLYWYQQKPGKAPKLLIYQMSNLQSGVPSRFSGSGSGTDFTLTISSLQPEDFATYYCAQNLEIPRTFGQGTKLEIK", "s⁻¹", 0.00317),
    ("Monovalent EpCAM (GG03_VH x GG05_VL) (antibody, IgG1, V domains shown, one-armed hu IgG1 PG-LALA, VH/VL-crossed Fab on Fc hole plus empty Fc knob; from supernatant) VH: QVQLVQSGAEVKKPGASVKVSCKASGYTFTNYGMNWVRQAPGQRLEWMGWINTYTGESTYSQKFQGRVTITLDTSASTAYMELSSLRSEDTAVYFCARFAIKGDYWGQGTLVTVSS VL: DIVMTQSPLSLPVTPGEPASISCRSSQGINNYLYWYLQKPGQSPQLLIYQMSNRASGVPDRFSGSGSGTDFTLKISRVEAEDVGVYYCAQNLEIPRTFGQGTKLEIK", "s⁻¹", 0.00483),
    ("Monovalent EpCAM (GG05_VH x GG02_VL) (antibody, IgG1, V domains shown, one-armed hu IgG1 PG-LALA, VH/VL-crossed Fab on Fc hole plus empty Fc knob; from supernatant) VH: EVQLVQSGAEVKKPGESLKISCKGSGYSFTQYGMNWVRQMPGKGLEWMGWINTYTGESTYSPSFQGQVTISADKSISTAYLQWSSLKASDTAMYFCARFAIKGDYWGQGTLVTVSS VL: DIVMTQSPDSLAVSLGERATINCKSSQSLLHSNGITYLYWYQQKPGQPPKLLIYQASTRESGVPDRFSGSGSGTDFTLTISSLQAEDVAVYYCAQNLEIPRTFGQGTKLEIK", "s⁻¹", 0.00783),
    ("Monovalent EpCAM (GG02_VH x GG02_VL) (antibody, IgG1, V domains shown, one-armed hu IgG1 PG-LALA, VH/VL-crossed Fab on Fc hole plus empty Fc knob; from supernatant) VH: QVQLVQSGAEVKKPGASVKVSCKASGYTFTNYGMNWVRQAPGQRLEWMGWINTYTGESTYSQKFQGRVTITRDTSASTAYMELSSLRSEDTAVYFCARFAIKGDYWGQGTLVTVSS VL: DIVMTQSPDSLAVSLGERATINCKSSQSLLHSNGITYLYWYQQKPGQPPKLLIYQASTRESGVPDRFSGSGSGTDFTLTISSLQAEDVAVYYCAQNLEIPRTFGQGTKLEIK", "s⁻¹", 0.00227),
    ("Monovalent EpCAM (GG05_VH x GG07_VL) (antibody, IgG1, V domains shown, one-armed hu IgG1 PG-LALA, VH/VL-crossed Fab on Fc hole plus empty Fc knob; from supernatant) VH: EVQLVQSGAEVKKPGESLKISCKGSGYSFTQYGMNWVRQMPGKGLEWMGWINTYTGESTYSPSFQGQVTISADKSISTAYLQWSSLKASDTAMYFCARFAIKGDYWGQGTLVTVSS VL: EIVLTQSPGTLSLSPGERATLSCRASQSINNYLYWYQQKPGQAPRLLIYQMSNRATGIPDRFSGSGSGTDFTLTISRLEPEDFAVYYCAQNLEIPRTFGQGTKLEIK", "s⁻¹", 0.00302),
    ("Monovalent EpCAM (GG07_VH x GG02_VL) (antibody, IgG1, V domains shown, one-armed hu IgG1 PG-LALA, VH/VL-crossed Fab on Fc hole plus empty Fc knob; from supernatant) VH: QVQLVQSGSELKKPGASVKVSCKASGYTFTNYGMNWVRQAPGQGLEWMGWINTYTGESTYAQGFTGRFVFSLDTSVSTAYLQISSLKAEDTAVYFCARFARSGDYWGQGTLVTVSS VL: DIVMTQSPDSLAVSLGERATINCKSSQSLLHSNGITYLYWYQQKPGQPPKLLIYQASTRESGVPDRFSGSGSGTDFTLTISSLQAEDVAVYYCAQNLEIPRTFGQGTKLEIK", "s⁻¹", 0.00528),
    ("Monovalent EpCAM (GG05_VH x GG04_VL) (antibody, IgG1, V domains shown, one-armed hu IgG1 PG-LALA, VH/VL-crossed Fab on Fc hole plus empty Fc knob; from supernatant) VH: EVQLVQSGAEVKKPGESLKISCKGSGYSFTQYGMNWVRQMPGKGLEWMGWINTYTGESTYSPSFQGQVTISADKSISTAYLQWSSLKASDTAMYFCARFAIKGDYWGQGTLVTVSS VL: DIQMTQSPSSLSASVGDRVTITCRASQSISSYLYWYQQKPGKAPKLLIYQASSLQSGVPSRFSGSGSGTDFTLTISSLQPEDFATYYCAQNLEIPRTFGQGTKLEIK", "s⁻¹", 0.00536),
]

Consider Monovalent EpCAM (GG03_VH x GG02_VL) (antibody, IgG1, V domains shown, one-armed hu IgG1 PG-LALA, VH/VL-crossed Fab on Fc hole plus empty Fc knob; from supernatant) VH: QVQLVQSGAEVKKPGASVKVSCKASGYTFTNYGMNWVRQAPGQRLEWMGWINTYTGESTYSQKFQGRVTITLDTSASTAYMELSSLRSEDTAVYFCARFAIKGDYWGQGTLVTVSS VL: DIVMTQSPDSLAVSLGERATINCKSSQSLLHSNGITYLYWYQQKPGQPPKLLIYQASTRESGVPDRFSGSGSGTDFTLTISSLQAEDVAVYYCAQNLEIPRTFGQGTKLEIK . Its measured koff is 0.00301

Please fill in: koff reported for Monovalent EpCAM (GG07_VH x GG06_VL) (antibody, IgG1, V domains shown, one-armed hu IgG1 PG-LALA, VH/VL-crossed Fab on Fc hole plus empty Fc knob; from supernatant) VH: QVQLVQSGSELKKPGASVKVSCKASGYTFTNYGMNWVRQAPGQGLEWMGWINTYTGESTYAQGFTGRFVFSLDTSVSTAYLQISSLKAEDTAVYFCARFARSGDYWGQGTLVTVSS VL: DIQMTQSPSSLSASVGDRVTITCRASQSILHSQGITYLYWYQQKPGKAPKLLIYQMSNLQSGVPSRFSGSGSGTDFTLTISSLQPEDFATYYCAQNLEIPRTFGQGTKLEIK = 0.00142
